Assay: yeast display, Sf9 membrane polyspecificity reagent, FACS + sequencing; frameworks hold sequencing errors

{"item sequence": "QVQLVESGGGLVQAGGSLRLSCAASGSIFKPYAMGWYRQAPGKERELVAVISWRGGSTYYADSVKGRFTISRDYAKNTVYFQMNSLKPEDTAVYYCAARRYRYFDGTVPLDYWGQGTQVSVSS", "polyreactivity (PSR sort gate)": "high polyreactivity"}
{"item sequence": "QVQPVESGGGLVQAGGSLRLSCAASGLTFYRYAMGWYRQAPGKERELVAAISSGSSTYYADSVKGRFTISRDNSKNTVYLQLNILKPEDTAVYYCAARSIDAHGSRYGYWGQGTQVTVSS", "polyreactivity (PSR sort gate)": "high polyreactivity"}

* * *

Experiment: yeast display, Sf9 membrane polyspecificity reagent, FACS + sequencing; frameworks hold sequencing errors

{"item sequence": "QVQRVESGGGLVQAGGSLRLSCAASGRIFLIYAMGWYRPAPGKERELVAGISSGGSTYYADSVKGRFTISRDNAKNTVYLQMNSLKPEDTAVYYCAARRYYYRYLFGRYAYGYWGQGTQVNVSS", "polyreactivity (PSR sort gate)": "low polyreactivity"}
{"item sequence": "QVQLVESGGGLVQAGGSLRLSCAASGSILTRNAMGWYRQAPGKERELVAAISGGGGRTYYADSVKGRFTISRDNAKNTVYLQMNSLKPEDTAVYYCAADDGYSSNEYDYWGQGTQVTVSS", "polyreactivity (PSR sort gate)": "low polyreactivity"}
{"item sequence": "QVQLVESGGGLVQAGGSLRLICAASGNTFKDYTMVWYIQAPRKERDLVASINSGGSTNYADSVKGRFTISRDNAKNTVYLQMNSLKPEDTAVYYCAKRAWSDYNPIDYWGQGTQVSVSS", "polyreactivity (PSR sort gate)": "low polyreactivity"}

* * *

Assay: yeast display, Sf9 membrane polyspecificity reagent, FACS + sequencing; frameworks hold sequencing errors

{"item sequence": "QVQLVESGGGLVQAGGSLRLSCAASGSTFRYNAMGWYRQAPGKERELVAAITSGGTTNYADSVKGRFTISRDNAKNTVYLQMNSLKPEDTAVYYCNAYVAYWGWVYRVDYWGQGTQVTVSS", "polyreactivity (PSR sort gate)": "low polyreactivity"}
{"item sequence": "QVQIVESGRGLVQAGGSLRLSCAASGRIFYNDLMGWYRQAPGKERELVASISTGGTTYYSDSVKGRFTISRDNAKNTVYLQMNSLKPEDTAVYYCNAGLFYAPPFYTMDYWGQGTQVTVSS", "polyreactivity (PSR sort gate)": "low polyreactivity"}
{"item sequence": "QVQLLESGGGLVQAGGSLRLSCAASGIIFVRYVMGWYRQAPVKERELVAAINWSGGSTYYADSVKGRFTISRDNAKNTVYLQMNSLKPEDTAVYYCAAGSARDDDYWGQGTQVTVSS", "polyreactivity (PSR sort gate)": "high polyreactivity"}
{"item sequence": "QVQLVESGGGLVQAGGSLRLSCAASGRTFVRYAMGWYRQAPGKERELVAAISRTGGTTYYADSVKGRFTISRDNAKNTVYLQMNSLKPEDTAVYYCNADPFYKYGYWGQGTQVTVSS", "polyreactivity (PSR sort gate)": "high polyreactivity"}

* * *

Assay: yeast display, Sf9 membrane polyspecificity reagent, FACS + sequencing; frameworks hold sequencing errors

{"item sequence": "QVQLVESGGGLDQAGGSLRLSCAASGRTFGRYAMGWYRQAPGKERELVAAITRSGSSTYYADSVKGRFTISRDNAKNTVYLQMNSLKPEDTAVYYCAAGPRPRPSDYWGQGTQVTVSS", "polyreactivity (PSR sort gate)": "high polyreactivity"}
{"item sequence": "QVQLVESGGGLVQAGGSLRLSCAASGSIFYSNTMGWYSQAPGKERELVAAISSSSGRTYYADSVKGRFTISRDNAKNTVYLQMNSLKPEDTAVYYCARRYGWGQGTQVTVSS", "polyreactivity (PSR sort gate)": "high polyreactivity"}
{"item sequence": "QVQLVESGGGLVQAGGSLRLSCAASGRIFSAYAMGWFRQAPGKERELLAAISKRGGRTYYADSVKGRFTISRDNATNTVYLQTNSLKPEDTSVYYCNKRYLDGHDLDYCGQGTQVTVSS", "polyreactivity (PSR sort gate)": "high polyreactivity"}
{"item sequence": "QVQLVESGGGLVQEGGSLRLNCAASGRTFFRNTMGWYRQAPRKDSELFATISSSGGSTYYADSVKGLFTISRDTAKNTVYLQMNSLKPEDTAVYYCAAAPSKWYYGYGYWGQGTQVTVSS", "polyreactivity (PSR sort gate)": "high polyreactivity"}
{"item sequence": "QVQLVESGGGLVQAGGSLRLSCAASGSTFSQYVMGWYRQAPGKERELVAAISSGGSTYYADSVKGRFTISRDNAKNTVYLQMNSLKPEDTAVYYCAAKYDGSYVGLYWYSMNYWGQGTQVTVSS", "polyreactivity (PSR sort gate)": "low polyreactivity"}
{"item sequence": "QVQLVESGGGLVQAGGSLRLSCAASGNTFTKYAMGWYRQAPGKERELVAGITRGGSTNYADSVKGRFTISRDNAKNTVYLQMNSLKPEDTAVYYCNARPVYGSRFYSAVRMEYWGQGTQVNVSS", "polyreactivity (PSR sort gate)": "low polyreactivity"}
{"item sequence": "QVQLVESGGGLVQAGGSLRLSCAASGRTFYGYAMGWYRQAPAKERELVAAITWSVGRTYYADSVKGRFTISRDNAKNTVYLQMNSLKPEDTAVYYCAAQRAGLFNYWGQGTQVTVSS", "polyreactivity (PSR sort gate)": "low polyreactivity"}
{"item sequence": "QVHLVVSGGGLVQEGGSLSLRWAASGSTFEYYGMGWYTQAPGKERELVAAITVSGGSTYYADSVKGRFTISRDNEKNTVYLQIHSLKPEDSAVCYCAARPILYWYFRFDYWGQGTQVTVSS", "polyreactivity (PSR sort gate)": "low polyreactivity"}
{"item sequence": "QVQLVESGGGLVQAGGSLRLSCAASGRIFGYYAMGWYRQAPGKERELVAAITSGGRTYYADSVKGRFTISRDNAKNTVFLQMNSLKPEDTAVNYCAAVRALRKVRDYYYWGQGTQVTVSS", "polyreactivity (PSR sort gate)": "high polyreactivity"}
